tested on: ERK4; construct: gene MAPK4; settings: concentration: 1 μM, replicates: in singlicate; n = 1;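 note: KINOMEscan kinase panel screen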
readout.label: %Inh (%)

>>> measured("Cn1cncc1C(=O)NC1CCN(c2ccnc(Nc3ccc(F)cc3)n2)C1 (stereo not drawn)")
0
>>> measured("COc1nccc(-c2c(-c3ccc(F)cc3)ncn2CCCN2CCOCC2)n1")
0
>>> measured("CS(=O)(=O)CCNCc1nc(-c2ccc3ncnc(Nc4ccc(OCc5ccccc5)c(Cl)c4)c3c2)cs1.Cl")
0
>>> measured("CN1c2ccc(-c3ccc(C(N)=O)cc3)cc2-c2[nH]ncc2S1(=O)=O")
0
>>> measured("Cc1c(Cn2c3ccccc3n3c(=O)cc(N4CCOCC4)nc23)cccc1C(F)(F)F")
100
>>> measured("COc1cccc(CNC(=O)NC2CCN(c3ccnc(Nc4ccc(F)cc4)n3)C2)c1 (stereo not drawn)")
0
>>> measured("Cc1nccc(-c2c(-c3ccc(F)cc3)ncn2CCCN2CCOCC2)n1.Cl")
96.5
>>> measured("Nc1cccc(-c2ccc3c(N)n[nH]c3c2)n1")
35
>>> measured("O=C(Nc1n[nH]c2cc(-c3ccsc3)ccc12)C1CC1")
1

----------
test system: RSK2(Kin.Dom.1-N-terminal); construct: gene RPS6KA3; settings: concentration: 1 μM, replicates: in singlicate; n = 1
Recorded measurements of %Inh, one per entry
readout.label: %Inh

>>> measured("COc1ccc(Nc2nccc(N3CCC(NC(=O)C(C)c4ccc(Cl)cc4)C3)n2)cc1 (stereo not shown)")
"5%"
>>> measured("O=c1cc(N2CCOCC2)nc2n(Cc3cccc(Cl)c3Cl)c3ccccc3n12")
"19%"
>>> measured("O=C1NC(=O)C(c2ccc(Cl)cc2)=C1Nc1cccc(Cl)c1")
"23%"
>>> measured("O=C(Nc1n[nH]c2nc(-c3ccco3)c(Br)cc12)C1CCN(Cc2ccccc2)C1.O=C(O)[C@H](O)[C@@H](O)C(=O)O (stereo not shown)")
"35%"

----------
This listing pairs molecules with measured %Inh.
system: GSK3B; details: concentration: 1 μM, replicates: in singlicate; n = 1
readout.label: %Inh (%)

>>> measured("Cc1nccc(-c2c(-c3ccc(F)cc3)ncn2CCCN2CCOCC2)n1.Cl [SB-282975]")
17
>>> measured("Nc1nccc(-c2c(-c3ccc(F)cc3)ncn2C2CCN(Cc3ccccc3)CC2)n1 [SB-219980]")
11
>>> measured("CC(=O)c1c(C)c2cnc(Nc3ccc(N4CCNCC4)cn3)nc2n(C2CCCC2)c1=O")
0
>>> measured("CNCc1ccc2nc(NC(=O)c3ccc(C(C)(C)C)cc3)cn2c1")
11
>>> measured("c1ccc(-c2ccnc3[nH]ccc23)cc1 [SB-693578]")
13
>>> measured("CCn1c(-c2ccccc2)nc2cnccc21 [SB-733416]")
25
>>> measured("CS(=O)(=O)Cc1ccc(Nc2nccc(-c3c(-c4cccc(NC(=O)C5CCCCC5)c4)nn4ncccc34)n2)cc1 [GSK350559]")
20
>>> measured("COc1ccc(-c2coc3ccc(-c4nnc(C)o4)cc23)cc1")
0
>>> measured("COC(=O)c1cccc(NC(=O)NC2CCN(c3ccnc(Nc4ccc(OC)cc4)n3)C2)c1 (stereo not drawn) [GSK1379746]")
12

----------
tested on: TNK1; conditions: concentration: 1 μM, replicates: in singlicate; n = 1
readout.label: %Inh (%)

>>> measured("CNc1nc(-c2ccc3c(N)n[nH]c3c2)cc(N2C[C@@H](C(=O)NC3CCCCC3)OC[C@H]2C)n1")
13
>>> measured("COC(=O)C(Cc1ccccc1)NC(=O)NC1CCN(c2ccnc(Nc3ccc(F)cc3)n2)C1 (stereo not shown)")
0
>>> measured("COc1cccc(C2=C(Nc3cc(Cl)c(O)c(Cl)c3)C(=O)NC2=O)c1")
23
>>> measured("Cc1ccc(NC(=O)Nc2ccc(Cl)cc2)cc1-c1ccc(C(=O)Nc2ccncc2)cc1")
0
>>> measured("CCn1c(-c2ccccc2)nc2cnccc21")
31
>>> measured("COc1ccc(Nc2nccc(-c3ccc(NC(=O)c4cc5cc(F)ccc5[nH]4)cc3)n2)cc1")
47
>>> measured("CC(=O)c1c(C)c2cnc(Nc3ccc(N4CCNCC4)cn3)nc2n(C2CCCC2)c1=O")
0
>>> measured("COC(=O)C(NC(=O)NC1CCN(c2ccnc(Nc3ccc(F)cc3)n2)C1)c1ccccc1 (stereo not shown)")
0
>>> measured("NS(=O)(=O)c1cccc(N/C=C2\\C(=O)Nc3ccc(S(=O)(=O)Cc4c(Cl)cccc4Cl)cc32)c1")
0
>>> measured("COc1ccc(Nc2nccc(N3CCC(NC(=O)C(C)c4ccc(Cl)cc4)CC3)n2)cc1 (stereo not shown)")
0
>>> measured("COc1ccc(Nc2nccc(NCCNC(=O)Nc3cc(C)ccc3C)n2)cc1")
0
>>> measured("COc1cc2ncnc(Nc3cccc(Br)c3)c2cc1OC.Cl")
0
>>> measured("COc1ccc(-c2coc3ccc(-c4nnc(C)o4)cc23)cc1")
0

----------
tested on: FAK; construct: gene PTK2; conditions: concentration: 1 μM, replicates: in singlicate; n = 1
%Inh for assorted compounds
readout.label: %Inh (%)

>>> measured("COc1ccc2cc(-c3nc(-c4ccccc4C(C)C)[nH]c3-c3ccncc3)ccc2c1 [SB-660566]")
0
>>> measured("CCn1c(-c2c(N)noc2C)nc2cnccc21 [SB-737856]")
0
>>> measured("COc1cccc(NC(=O)Nc2ccc(C)c(-c3ccc(C(=O)Nc4ccncc4)cc3)c2)c1 [GSK1398474]")
13
>>> measured("Cc1nccc(-c2c(-c3ccc(F)cc3)ncn2CCCN2CCOCC2)n1.Cl [SB-282975]")
35
>>> measured("COc1ccc(Nc2nccc(-c3ccc(NC(=O)c4cc5cc(F)ccc5[nH]4)cc3)n2)cc1 [GSK1229496]")
0
>>> measured("Cc1cccc2c(-c3ccncn3)c(-c3ccc(F)cc3)nn12 [GW515532]")
0
>>> measured("Cc1c(Cn2c3ccccc3n3c(=O)cc(N4CCOCC4)nc23)cccc1C(F)(F)F [GSK2306394]")
0
>>> measured("Cn1cnc2c(N)ncnc21 [SKF-97623]")
0
>>> measured("Cc1ccc(NC(=O)Nc2ccccc2F)cc1-c1ccc(C(=O)Nc2ccncc2)cc1 [GSK1398477]")
0
>>> measured("O=C(Nc1n[nH]c2cc(-c3ccsc3)ccc12)C1CC1 [SB-732932]")
6
>>> measured("COc1cccc(C2=C(Nc3cc(Cl)c(O)c(Cl)c3)C(=O)NC2=O)c1 [SB-390767]")
0
>>> measured("Cc1ccccc1Cn1ccn2c(=O)cc(N3CCOCC3)nc12 [GSK2269905]")
0
>>> measured("CC(C)c1cc(-c2ccc3c(N)n[nH]c3c2)nc(N)n1 [GSK2250882]")
0
>>> measured("CNCc1ccc2nc(NC(=O)c3ccc(C(C)(C)C)cc3)cn2c1")
3
>>> measured("NS(=O)(=O)c1cccc(N/C=C2\\C(=O)Nc3ccc(S(=O)(=O)Cc4c(Cl)cccc4Cl)cc32)c1 [GSK398099]")
0
>>> measured("Cc1ccc(NC(=O)c2ccc(Cl)cc2)cc1-c1ccc(C(=O)Nc2ccncc2)cc1 [GSK1398467]")
0
>>> measured("COc1cccc(CNC(=O)NC2CCN(c3ccnc(Nc4ccc(F)cc4)n3)C2)c1 (stereo not shown) [GSK1379723]")
0
>>> measured("O=C(Nc1n[nH]c2nc(-c3cccs3)c(Br)cc12)C1CCCC1 [SB-743341]")
1
>>> measured("O=C1NC(=O)C(c2ccc(Cl)cc2)=C1Nc1ccc(O)cc1 [SB-340867]")
0
>>> measured("COc1ccc(Nc2nccc(N3CCC(NC(=O)C(C)c4ccc(Cl)cc4)C3)n2)cc1 (stereo not shown) [GSK1379735]")
0
>>> measured("CC(=O)c1c(C)c2cnc(Nc3ccc(N4CCNCC4)cn3)nc2n(C2CCCC2)c1=O")
0
>>> measured("CS(=O)(=O)CCNCc1nc(-c2ccc3ncnc(Nc4ccc5c(cnn5Cc5ccccc5)c4)c3c2)cs1.Cl.Cl [GW569716]")
0

----------
test system: TLK1; settings: concentration: 1 μM, replicates: in singlicate; n = 1
readout.label: %Inh (%)

>>> measured("COc1ccc(Nc2nccc(N3CCC(NC(=O)C(C)c4ccc(Cl)cc4)C3)n2)cc1 (stereo not drawn) [GSK1379735]")
0
>>> measured("COc1ccc(CSc2nnc(-c3ccc4c(c3)CCO4)o2)cc1")
0
>>> measured("Cc1ccc(NC(=O)Nc2ccc(Cl)c(C(F)(F)F)c2)cc1-c1ccc(C(=O)Nc2ccncc2)cc1 [GSK1398470]")
20
>>> measured("O=c1cc(N2CCOCC2)nc2n(Cc3ccccc3F)ccn12 [GSK2297428]")
0
>>> measured("CC(=O)c1cccc(NC(=O)NC2CCN(c3ccnc(Nc4ccc(F)cc4)n3)C2)c1 (stereo not drawn) [GSK1379710]")
12
>>> measured("COc1ccc(Nc2nccc(-c3ccc(NC(=O)c4cc5cc(F)ccc5[nH]4)cc3)n2)cc1 [GSK1229496]")
23
>>> measured("O=C(Nc1n[nH]c2cc(-c3ccsc3)ccc12)C1CC1 [SB-732932]")
0
>>> measured("Fc1ccc(-c2nc3n(c2-c2ccncc2)CCS3)cc1 [GI98581]")
0
>>> measured("CNc1nc(-c2ccc3c(N)n[nH]c3c2)cc(N2C[C@@H](C(=O)NC3CCCCC3)OC[C@H]2C)n1 [GSK2375584]")
17
